molecular target: T1, human GPC3 on cells (HepG2 cells expressing full length human GPC3; GPC3-transfected HEK293T cells) (human, UniProt P51654 25-554); test: flow cytometry on HepG2 cells
T1 construct: whole, on cells; also called GPC3-expressing HepG2 tumor cells
A collection of binders and their measured HepG2 Cell binding (Fold ratio)
Number in fold, nothing else.

Example entries and their recorded answers appear below.
stdin: Specify HepG2 Cell binding (Fold ratio) for anti-human GPC3 IgG1 antibody clone 74 (antibody, V domains shown) VH: QCQSVEESGGRLVTPGTPLTLTYTVSGFSLNNYDMSWVRQAPGKGLQYIGWINSGGTAYYASWAKGRFTISKTSSTTVDLKMTSPTTEDTATYFCARHRYGYYGDIWGPGTLVTVSL VL: DPVLTQTPSSVSAAVGGTVTINCQSSQNVYNNNRLAWYQQKLGQPPKLLIYFASKLASGVPSRFSGSGSGTQFTLTISGVQCDDAATYYCAGGYNTIVDNGFGGGTEVVVKR and stop.
stdout: 143

stdin: Specify HepG2 Cell binding (Fold ratio) for anti-human GPC3 IgG1 antibody clone 22 (antibody, V domains shown) VH: CQSVEESGGRLVTPGTPLTLTCTVSGFSLSTYWMTWVRQAPGKGLEWIGIINPTGRAYYASWAKGRFTISKTSSATVDLKMTSLTAADTATYFCAGGGGMDPWGPGTLVTVSS VL: DPVLTQTPSSVSAAVGGTVTINCQSSQSVYSNYLSWFQKKPGQPPKRLIYKASTLVSGVPSRFVGSGSGTEFTLTISDLECDDAATYYCAASYSGNIYVFGGGTEVVVKR and stop.
stdout: 121

stdin: Specify HepG2 Cell binding (Fold ratio) for anti-human GPC3 IgG1 antibody clone 2 (antibody, V domains shown) VH: CQSVEESGGRLVTPGTPLTLTCTVSGFSLSTYNMGWIRQAPGEGLEYIGTISSSTGNTYYATWAKGRFTISKTSSTTVDLKITNLTTEDTATYFCVRVNNMGDIWGPGTLVTVSL VL: AIVMTQTPSSKSVAVGDTVTINCQASESVYKDNRLAWFQQKPGQAPKLLIYLASTLASGVPSRFKGSGSGTEFTLTISDVVCDDAATYYCGGYKDSLFDGFPFGGGTEVVVKR and stop.
stdout: 694

stdin: Specify HepG2 Cell binding (Fold ratio) for anti-human GPC3 IgG1 antibody clone 41 (antibody, V domains shown) VH: CQSVEESGGRLVTPGTALTLTCTVSGFSLSTYWMTWVRQAPGKGLEWIGIINPGGSAYYASWAKGRFTISKASSATVDLKMTSLTAADTATYFCAGGGGMDPWGPGTLVTVSS VL: DPVLTQTPSSVSAAVGGTVSISCQSSQSIIKNYLSWFQHKPGQPPKRLIYRASTLPSGVPSRFEGSGSGTEFTLTINDLECDDAATYYCAASYSDNIYVFGGGTEVVVKR and stop.
stdout: 116

stdin: Specify HepG2 Cell binding (Fold ratio) for anti-human GPC3 IgG1 antibody clone 8 (antibody, V domains shown) VH: CQSVEESGGRLVTPGTALTLTCTVSGFSLSTYWMTWVRQAPGKGLEWIGIINPGGSAYYASWAKGRFTISKTSSATVDLKMTSLTAADTATYFCAGGGGMDPWGPGTLVTVSS VL: DPVLTQTPSSVSAAVGGTVSISCQSSQSIIKNYLSWFQHKPGQPPKRLIYRASTLPSGVPSRFEGSGSGTEFTLTISDLECDDAATYYCAASYSDNIYVFGGGTEVVVKR and stop.
stdout: 79.5

stdin: Specify HepG2 Cell binding (Fold ratio) for anti-human GPC3 IgG1 antibody clone 121 (antibody, V domains shown) VH: CQSVEESGGRLVTPGTPLTLTCTVSGFSLSTYWMTWVRQAPGKGLEWIGIINPAGSAYYASWAKGRFTISKTSSATVDLKMTSLTAVDTATYFCAGGGGMDPWGPGTLVTVSS VL: DPVLTQTPSSVSAAVGGTVTISCQSSQNIIKDYLSWFQQKPGQPPKRLIYKTSTLPSGVPSRFKGSGSGTEFTLTISDLECDDAATYYCAASYSGNIYVFGGGTEVVVKR and stop.
stdout: 74.6

stdin: Specify HepG2 Cell binding (Fold ratio) for anti-human GPC3 IgG1 antibody clone 49 (antibody, V domains shown) VH: CQSVEESGGRLVTPGTPLTLTCTVSGFSLSTYWMTWVRQAPGKGLEWIGIINPSGSAYYASWAKGRFTISKTSSATVDLKMTSLTAADTATYFCAGGGGMDPWGPGTLVTVSS VL: DPVLTQTPSSVSAAVGGTVSISCQSSQSIVKNYLSWFQQKPGQPPKRLIYKASTLPSGVPSRFKGSGSGTEFTLTISDLECDDAATYYCAASYSDNIYVFGGGTEVVVKR and stop.
stdout: 115

stdin: Specify HepG2 Cell binding (Fold ratio) for anti-human GPC3 IgG1 antibody clone 40 (antibody, V domains shown, also called parental clone 40; chimeric anti-GPC3 clone 40) VH: CQSVEESGGRLVTPGTPLTLTCTVSGFSLSTYWMTWVRQAPGKGLEWIGIISPAGSAYYASWAKGRFTISKTSSATVDLKMTSLTTADTATYFCAGGGGMDPWGPGTLVTVSS VL: DPVLTQTPSSVSAAVGGTVSISCQSSQSIVKNYLSWFQQKPGQPPKRLIYKASTLPSGVPSRFKGSGSGTEFTLTISDLECDDAATYYCAASYSDNIYVFGGGTEVVVKR and stop.
stdout: 104

stdin: Specify HepG2 Cell binding (Fold ratio) for anti-human GPC3 IgG1 antibody clone 17 (antibody, V domains shown) VH: CQSVEESGGRLVTPGTPLTLTCTVSGFSLSTYDMSWVRQAPGKGLEYIGWINSGGSPYYARWAKGRFTISKTSSTTVDLKMTSPTTEDTATYFCARHRSGYYGDIWGPGTLVTVSL VL: DPVLTQTPSSVSAAVGDTVSINCQSSQNVYKNRLAWYQQKPGQPPKLLIYGASTLASGVPSRFKGSGSGTQFTLTISDLECDDAATYYCAGGYSTIVDNTFGGGTEVVVKR and stop.
stdout: 39.9

Shifting focus to the binder that follows.
stdin: Specify HepG2 Cell binding (Fold ratio) for anti-human GPC3 IgG1 antibody clone 12 (antibody, V domains shown) VH: CQSVEESGGRLVTPGTPLTLTCTVSGFSLSTYWMTWVRQAPGKGLEWIGIINPSGSAFYASWAKGRFTISKTSSATVDLKMTSLTAADTATYFCAGGGGMDPWGPGTLVTVSS VL: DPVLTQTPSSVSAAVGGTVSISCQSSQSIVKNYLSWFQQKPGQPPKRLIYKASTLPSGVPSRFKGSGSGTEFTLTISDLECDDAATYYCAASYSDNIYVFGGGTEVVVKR and stop.
stdout: 125
